Reported inhibition values for a set of compounds
- Test system: Saccharomyces cerevisiae
- protocol.details: Inhibition of yeast chitin synthase at 250 uM
Give just the numeric value; % need not be written.

CCCCC1(CCCC)OC(c2ccc(Cl)cc2)=NN1C(C)=O: 69
CCCCC1(CCCC)OC(c2cc(C)cc(C)c2)=NN1C(C)=O: 68
CCCCC1(CCCC)OC(c2ccc(Cl)cc2Cl)=NN1C(=O)NC(=O)c1ccccc1Cl: 86

Next up:
Report inhibition for `CCCCC1(CCCC)OC(c2ccccc2Cl)=NN1C(C)=O` please. 91

The measurements presented in this section are drawn from ChEMBL document CHEMBL1149078.
